Reference for the values: the supplement of paper PMC12764529

Experiment: folding stability dG unfold (combined trypsin and chymotrypsin); higher = more stable
Tag: 1 if measured folding stability dG unfold is not below 3 kcal/mol, 0 if it is.

Worked examples, 6 sequences total:
SAGGSAGGSAGGEKTIVISEEEAEKLAKELEKKGLTVERKPDGTLKVNGKEIRIIVVEPSAGGSAGGSAGGS [r10_930_TrROS_Hall] : 0
SAGGSAGGSGPVLLVRVRPDGTREILDVLPPDEPVENLPAGEFREFRLIPTESLEDALRKALASAGGSAGGS [r12_452_TrMRF] : 0
SAGGSAKKLPAEAVAKELAERLSKELGLTIKRVEVEVIDPEKGLVRVTVVYETPYGYLKREILLPVSAGGSA [r15_32_TrMRF] : 1
SAGGSAGGSAEEPEFEIVSVEYDPETNVLTVVVRDKKTGRLYVFRFYPDGTVEVREVSLEDLSAGGSAGGSA [r18_521_TrROS_Hall] : 1
SAGGDNVKLRFYDPNGRLKIDEINPENGNIKVEYEGPGKPRERTVDADPDEAIDEIADNFPFPLEIEKSAGG [r13_141_TrROS] : 0
SAGGSAGGSAGGIYIPMDDLKKNGMSIEQFADKLGHPVEIEVERNEPGSPVFKIEPDAKSAGGSAGGSAGGS [r10_855_TrROS] : 0

folding stability dG unfold >= 3 kcal/mol for SAGGSAGGSPSITIEKDKEKPVYKVTVYTPNGEKKVFENPEGKKVTTDSNGGEIYIDDVKINVSAGGSAGGS [r12_346_TrMRF] ? 0

folding stability dG unfold >= 3 kcal/mol for SAGGSAGGSEMEVKVTVEPAPAGAPPGAVVRVEVEFEDGFRITVRFTFVDGKLRAEVTEIKPVSAGGSAGGS [r12_1049_TrROS_Hall] ? 1

folding stability dG unfold >= 3 kcal/mol for SAGGSAKPKITITVTYDKETNTVTVTITFPDGTTLTITVEAETEEEAKKAAKKLVEELLKKLEELESAGGSA [r15_477_TrROS_Hall] ? 1

folding stability dG unfold >= 3 kcal/mol for SAGGSAGGSAGGSYTVSEIPEEGLVLKTLPNGVVTRYKVSPDGSLEEIATFEPGNGVLIKSAGGSAGGSAGG [r7_659_JUSTAS] ? 0

folding stability dG unfold >= 3 kcal/mol for SAGGSAGGKSYVRLEVYRRNPETDEWEKIRTEVLETDAASGEEVRRRALERVPEDYLVKVELFPSAGGSAGG [r6_623_TrMRF] ? 0

folding stability dG unfold >= 3 kcal/mol for SKVKPGEKVEYVEITITVDVKSVEELEKKLRELLGVKEVKVTVTEENGKLTLTIVVKSKEEADKLKELLSSA [r9_764_TrROS_Hall] ? 0

folding stability dG unfold >= 3 kcal/mol for SAGGGSMEVVKEEVSEEVEVLPNGTVLTTKTITYKTPDGKEYTETVLERVDPVTGKREVIEKKTYPSSAGGS [r16_50_JUSTAS] ? 0

folding stability dG unfold >= 3 kcal/mol for SAGGSAGGSAGSVLILVSREDLEALLEAGAEIVEVSDDYVLIRVEVPEVEVLDENGKRLDSAGGSAGGSAGG [r11_828_TrROS_Hall] ? 0
